# experiment: HPDE-C7 pancreatic duct cell viability loss – fluorescence, HTS (AID 430);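 also: cells exposed to compound for 48 hours before viability readout; 0% = vehicle and 100% = reference cytotoxic drug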
# experimental parameters: HPDE-C7 pancreatic duct cells viability, at 10 µM, active compounds read high
In all, about 63,000 compounds went through this assay and about 1,100 (1.7%) were called active. What follows is part of a selection rich in actives, with near analogues and random picks from the rest. Entries with a potency or affinity are not part of this list.

[
  {
    "molecule": "C=CCN1C(=O)CSc2ccc(C(=O)N3CCC4(CC3)OCCO4)cc21",
    "cytotoxicity / %": -17.9
  },
  {
    "molecule": "O=C(COc1ccccc1)N1CCN(C/C=C/c2ccccc2)CC1",
    "cytotoxicity / %": 1.6
  },
  {
    "molecule": "C=CCN1C(=O)C2(C(C(=O)OCC)=C(N)Oc3ccccc32)c2c1c1ccccc1oc2=O (centres undefined)",
    "cytotoxicity / %": 5.2
  },
  {
    "molecule": "CC(C)=CCC12CN3CCN(CC(C3)C1=O)C2",
    "cytotoxicity / %": -7.6
  }
]
